Provide the reported RPA-T4-PE-Dazzle 594 signal in binning of each item.
target: T1, human CD4 on cells (SKW3 cells; human PBMCs) (human, UniProt P01730 26-458); assay: SKW3 FACS binning; competitor RPA-T4-PE-Dazzle 594 added after supernatant (background 783, max binding 15000)
T1 construct: whole, on cells; SKW3 CD4 knockout cells served as the negative cell line for the WT vs KO ratios; also called hCD4; SKW3 WT
Give bare numbers.

Reference set, count: 3
query: Using known records, supply RPA-T4-PE-Dazzle 594 signal in binning for 75110_08A13A (antibody, V domains shown, Tested as non-clonal hybridoma supernatant (AlivaMab Mouse Kappa), detected with anti-mouse Fc and anti-human kappa) VH: EVQLVESGGGLVQPGGSLRLSCAASGFIFSSYWMSWVRQAPGKGLEWVANIKQDGSEKYYMDSVKGRFTISRDNAKNSLYLQMNSLRAEDTAVYYCARDNSYYYYGMDVWGQGTTVTVSS VL: AIQMTQSPSSLSASVGDRVTITCRASQGIRDDLGWYQQKPGKAPKLLIFAASSLQSGVPSSFSGSGSGTDFTLTISSLQPEDFATYYCLHHYNYPYTFGQGTKLEIK
result: 13300

query: Using known records, supply RPA-T4-PE-Dazzle 594 signal in binning for 75110_02I18A (antibody, V domains shown, Tested as non-clonal hybridoma supernatant (AlivaMab Mouse Kappa), detected with anti-mouse Fc and anti-human kappa) VH: EVQVVESGGGLVQPGGSLRLSCAASGFTFSSYDMHWVRQATGKGLEWVSTIGTAGDTYYPGSVKGRFTISRENAKNSLYLQMNSLRAGDTAVYYCARGGYYYYGMDVWGQGTTVTVSS VL: EIVLTQSPGTLSLSPGERATLSCRASQSVSSSYLAWYQQKPGQSPRLLIHGASSRATGIPDRVSGSGSGTDFTLTISRLEPEDFAVYYCQQYGSSPFTFGPGTKVDIK
result: 4410

query: Using known records, supply RPA-T4-PE-Dazzle 594 signal in binning for 75110_07J24A (antibody, V domains shown, Tested as non-clonal hybridoma supernatant (AlivaMab Mouse Kappa), detected with anti-mouse Fc and anti-human kappa) VH: QAQLQESGPGLVKPSETLSLTCTVSGGSISSYYYNWIRQPAGKGLEWIGRIYTSGRTDYNPSLKSRVTMSADTSKNQFSLKLSSVTAADTAVYYCARDEGPTDAFDIWGQGTMVTVSS VL: DIVMTQTPLSLPVTPGEPASISCRSSQSLLDSDDGNTYLDWYLQKPGQSPHLLIYTLSYRASGVPDRFSGSGSGSDFTLKISRVEAEDVGVYYCMQRIEFPFTFGPGTKVDIK
result: 8460

Your task in this section: give RPA-T4-PE-Dazzle 594 signal in binning for each listed record.
1. 75110_05E13A (antibody, V domains shown, Tested as non-clonal hybridoma supernatant (AlivaMab Mouse Kappa), detected with anti-mouse Fc and anti-human kappa) VH: EVQLVESGGDLVKPGGSLRLSCAASGFSFSNAWMSWVRQAPGKGLEWVGRVESKTDGGTTDYAAPVKDRFTISRDDSKYTLYLQMNSLKTEDSAVYYCTIGGGFGLELYGFFDYWGQGTLVTVSS VL: DIQMTQSPSTLSASVGDRVTITCRASQSISSWLAWYQQKPGKAPMLLIYKASSLESGVPSRFSGSGSGTEFTLTISSLQPDDFATYYCLQYNSYYTFGQGTKLEIK
2. 75110_04H17A (antibody, V domains shown, Tested as non-clonal hybridoma supernatant (AlivaMab Mouse Kappa), detected with anti-mouse Fc and anti-human kappa) VH: QVQLQESGPGLVKPSETLSLTCTVSGGSISTYYWSWIRQSAGKGLEWIGRIYTSERPNYNPSLKSRVTMSVDTSKNQFSLKLNSVSAADTAVYYCARELERPYYYGMDVWGQGTTVTVSS VL: DVQMTQSPSSLSASVGGRVTITCQASQDISNYLNWYQQKPGKAPKLLIYYASNLETGVPSRFSGSGSGTDFTFTISSLQPEDFATYYCQQYDNLPLTFGGGTKVEIK
3. 75110_05A11A (antibody, V domains shown, Tested as non-clonal hybridoma supernatant (AlivaMab Mouse Kappa), detected with anti-mouse Fc and anti-human kappa) VH: EVQLVESGGGLVKPGGSLTLSCAASGFTFSNTWMSWVRQAPGKGLEWVGRIKSKIDGGTTDYAAPVKGRFTISRDDSKNTLYLQMNSLKTEDTAVYYCTTSGTYSSGWGLFDYWGQGTLVTVSS VL: DIQMTQSPSSLSASVGDRVTITCQASQDISNYLNWYQQKPGKAPKLLIYDTSNLEAGVPSRFSGSGSGTHFTLTISSLQPEDIATYYCQQYDNLPFTFGGGTRVEIK
4. 75110_02E22A (antibody, V domains shown, Tested as non-clonal hybridoma supernatant (AlivaMab Mouse Kappa), detected with anti-mouse Fc and anti-human kappa) VH: QVQLQESGPGLVKPSETLSLTCTVSGGSISSFYWSWIRQPAGKGLEWIGRIYTSGSTNYNPSLKSRVTMSVDTSKNQFSLKLSSVTAADTAVYYCARELEKRNYYGMDVWGQGTTVTVSS VL: DIQMTQSPSSLSASVGDRVTITCQASHDISNYLNWYQQKPGKAPKLLIFDASTLETGVPSRFSGSGSGTYFTFTIRSLQPEDIATYYCQQYDSLPLTFGGGTKVEIK
5. 75110_05E05A (antibody, V domains shown, Tested as non-clonal hybridoma supernatant (AlivaMab Mouse Kappa), detected with anti-mouse Fc and anti-human kappa) VH: QVQLQESGPGLVKPSETLSLTCTVSGGSIGSYYWSWIRQPAGKGLEWIGRIYTSGSTNYNPSLKSRVTMSFDTSKNQFSLKLNSVTAADTAVYYCATDGGVGDSLDYWGQGTLVTVSS VL: DIVMTQTPLSLPVTPGEPASISCRSSQSLLDSDDGNTYLDWYLQKPGQSPQLLIYTLSYRASGVPDRFSGSGSGTDFTLKISRVEAEDVGVYYCMQHIEFPFTFGPGTKVDIK
6. 75110_01C18A (antibody, V domains shown, Tested as non-clonal hybridoma supernatant (AlivaMab Mouse Kappa), detected with anti-mouse Fc and anti-human kappa) VH: EVQLVESGGGLIQPGGSLRLSCAASGFTVSSNYMNWVRQAPGKGLEWVSVIYAGDNTYSADSVKGRFTISRDNSNNTLCLQMNSLRAEDTAVYYCAREGGTTGAFDIWGQGTMVTVSS VL: DIQMTQSPSSVSASVGDRVTITCRASQGINSWLAWYQQKPGKAPKLLIYAASSLQSGVPSRFSGSGSGTDFTLTISSLQPEDFATYYCQQGNSFPYTFGQGTKLEIK

result:
[16500, 16800, 17200, 15300, 16500, 16500]
